meta.source: ChEMBL document CHEMBL5729410

Vascular endothelial growth factor receptor 2 (Homo sapiens, UniProt P35968) measurements of IC50, listed per entry.
Sequence (P35968 whole entry): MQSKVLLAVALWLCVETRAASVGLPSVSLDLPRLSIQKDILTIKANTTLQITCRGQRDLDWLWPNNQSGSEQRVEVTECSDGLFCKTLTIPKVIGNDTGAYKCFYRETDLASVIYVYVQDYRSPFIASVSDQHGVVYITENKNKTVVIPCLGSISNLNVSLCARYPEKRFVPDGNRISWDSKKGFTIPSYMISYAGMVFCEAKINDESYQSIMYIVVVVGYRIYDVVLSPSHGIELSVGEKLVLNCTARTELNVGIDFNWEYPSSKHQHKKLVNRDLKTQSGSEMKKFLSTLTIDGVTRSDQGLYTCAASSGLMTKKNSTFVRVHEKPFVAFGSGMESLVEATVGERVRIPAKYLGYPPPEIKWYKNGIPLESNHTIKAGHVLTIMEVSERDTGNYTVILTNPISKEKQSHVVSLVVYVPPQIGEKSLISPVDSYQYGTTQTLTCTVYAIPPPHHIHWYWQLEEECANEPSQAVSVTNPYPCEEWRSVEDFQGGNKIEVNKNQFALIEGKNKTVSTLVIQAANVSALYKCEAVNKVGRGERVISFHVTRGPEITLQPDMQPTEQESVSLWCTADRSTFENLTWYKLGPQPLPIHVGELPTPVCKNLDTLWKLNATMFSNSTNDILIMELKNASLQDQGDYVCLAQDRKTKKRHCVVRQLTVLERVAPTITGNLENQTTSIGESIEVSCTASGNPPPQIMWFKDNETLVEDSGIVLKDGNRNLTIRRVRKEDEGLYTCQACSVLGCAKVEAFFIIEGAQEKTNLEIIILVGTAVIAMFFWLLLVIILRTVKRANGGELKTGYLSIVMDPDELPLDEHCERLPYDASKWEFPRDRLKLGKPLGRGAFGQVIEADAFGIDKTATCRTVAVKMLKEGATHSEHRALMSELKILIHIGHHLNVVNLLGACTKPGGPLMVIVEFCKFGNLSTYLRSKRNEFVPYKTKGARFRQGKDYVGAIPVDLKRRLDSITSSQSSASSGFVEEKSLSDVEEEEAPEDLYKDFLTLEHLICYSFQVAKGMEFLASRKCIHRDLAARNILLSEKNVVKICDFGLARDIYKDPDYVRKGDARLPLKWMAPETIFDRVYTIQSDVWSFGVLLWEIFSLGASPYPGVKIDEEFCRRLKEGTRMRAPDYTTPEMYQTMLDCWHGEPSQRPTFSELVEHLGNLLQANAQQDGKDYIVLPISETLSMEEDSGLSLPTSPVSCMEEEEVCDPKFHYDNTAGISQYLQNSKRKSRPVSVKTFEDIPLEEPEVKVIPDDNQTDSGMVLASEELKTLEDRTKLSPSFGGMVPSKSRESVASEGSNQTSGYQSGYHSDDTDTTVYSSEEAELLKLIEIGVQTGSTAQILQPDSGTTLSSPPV

MOLECULE SMILES: CN(CCCOc1cc2nccc(Oc3ccc(NC(=O)Nc4ccc(Cl)c(C(F)(F)F)c4)cc3)c2c2c1OCCO2)C1CCC1
ASSAY VALUE: < 50 nM

For the next question, use this compound.
Problem: Entry `O=C(Nc1ccc(Oc2ccnc3cc(OCCCN4CCOCC4)c4c(c23)OCCO4)cc1F)NC1CC1` : reported IC50 = ?
Solution: < 50 nM

###

Proto-oncogene tyrosine-protein kinase receptor Ret (Homo sapiens, UniProt P07949) measurements of IC50, listed per entry.
Sequence (P07949 whole entry): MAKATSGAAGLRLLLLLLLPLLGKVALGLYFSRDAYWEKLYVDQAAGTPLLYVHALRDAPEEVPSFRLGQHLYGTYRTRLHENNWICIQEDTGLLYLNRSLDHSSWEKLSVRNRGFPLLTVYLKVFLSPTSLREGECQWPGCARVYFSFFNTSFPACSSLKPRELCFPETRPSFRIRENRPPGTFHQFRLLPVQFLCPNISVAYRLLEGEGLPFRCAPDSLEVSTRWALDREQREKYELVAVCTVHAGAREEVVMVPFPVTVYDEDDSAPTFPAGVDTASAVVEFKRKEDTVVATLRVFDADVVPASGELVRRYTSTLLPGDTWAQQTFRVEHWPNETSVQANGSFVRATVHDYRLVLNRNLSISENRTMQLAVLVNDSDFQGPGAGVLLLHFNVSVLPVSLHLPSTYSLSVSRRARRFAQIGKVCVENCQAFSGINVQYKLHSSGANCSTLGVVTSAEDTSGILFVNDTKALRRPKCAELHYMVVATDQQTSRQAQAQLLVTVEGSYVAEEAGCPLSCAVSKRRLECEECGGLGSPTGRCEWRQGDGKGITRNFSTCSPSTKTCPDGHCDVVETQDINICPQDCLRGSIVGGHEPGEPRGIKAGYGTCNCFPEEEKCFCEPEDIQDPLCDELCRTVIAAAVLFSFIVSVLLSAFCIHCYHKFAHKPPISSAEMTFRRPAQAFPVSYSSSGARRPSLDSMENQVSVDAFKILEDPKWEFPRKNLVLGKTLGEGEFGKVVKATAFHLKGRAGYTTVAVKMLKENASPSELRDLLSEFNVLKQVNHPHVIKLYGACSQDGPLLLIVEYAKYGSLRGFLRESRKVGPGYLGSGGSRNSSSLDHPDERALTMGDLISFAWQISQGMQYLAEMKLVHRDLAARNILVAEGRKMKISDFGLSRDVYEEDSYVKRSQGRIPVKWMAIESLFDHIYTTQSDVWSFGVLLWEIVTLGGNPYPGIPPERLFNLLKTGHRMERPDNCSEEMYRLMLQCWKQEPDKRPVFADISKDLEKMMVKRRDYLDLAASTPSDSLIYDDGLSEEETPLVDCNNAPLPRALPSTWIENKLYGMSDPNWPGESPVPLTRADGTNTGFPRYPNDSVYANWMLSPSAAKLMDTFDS

Solved entries:
MOLECULE SMILES: CN(CCCOc1cc2nccc(Oc3ccc(NC(=O)Nc4ccc(Cl)c(C(F)(F)F)c4)cc3)c2c2c1OCCO2)C1CCC1
MEASURED TARGET: Proto-oncogene tyrosine-protein kinase receptor Ret (Homo sapiens, UniProt P07949)
IC50: < 0.05 µM
--
MOLECULE SMILES: O=C(Nc1ccc(Oc2ccnc3cc(OCCCN4CCOCC4)c4c(c23)OCCO4)cc1F)NC1CC1
MEASURED TARGET: Proto-oncogene tyrosine-protein kinase receptor Ret (Homo sapiens, UniProt P07949)
IC50: < 0.05 µM

For the next question, use this molecule.
Problem: Notebook entry, Proto-oncogene tyrosine-protein kinase receptor Ret (Homo sapiens, UniProt P07949) assay: IC50 of `O=C(Nc1ccc(Oc2ccnc3cc(OC4CCOCC4)c4c(c23)OCCO4)cc1Cl)NC1CC1` = ?
Solution: < 0.05 µM
